test system: latently HIV-1 infected CA5 T cells; conditions: pretreatment with increasing concentrations, then sub-optimal HRF
*1 amine or outer side, *2 acyl side, *3 side chain or, on linkers, in order; H or OH if unused. Where a SMILES comes first, the peptide text is derived from it. Bridges are numbered along the chain shown (N, C = ends). Roman numbers before positions name the chains, in order. [ ]: non-standard residue; d: D form. Actinocin(9to1) = Cc1c2oc3c(C)ccc(C(=O)[*:1])c3nc-2c(C(=O)[*:2])c(N)c1=O; NMeV = CN[C@H](C(=O)O)C(C)C; Sar = CNCC(=O)O
Assay Metric: priming effect on HIV-1 reactivation by sub-optimal dose of HRF

INSERT INTO results (molecule, test_target, experimental_value) VALUES
  ('O=C1[O][Pt]2([NH][C@@H]3CCCC[C@H]3[NH]2)[O]C1=O', 'latently HIV-1 infected CA5 T cells', 'not reproduced'),
  ('Cc1c2oc3c(C)ccc(C(=O)N[C@@H]4C(=O)N[C@H](C(C)C)C(=O)N5CCC[C@H]5C(=O)N(C)CC(=O)N(C)[C@@H](C(C)C)C(=O)O[C@@H]4C)c3nc-2c(C(=O)N[C@@H]2C(=O)N[C@H](C(C)C)C(=O)N3CCC[C@H]3C(=O)N(C)CC(=O)N(C)[C@@H](C(C)C)C(=O)O[C@@H]2C)c(N)c1=O [dactinomycin] (I: T[dV]P[Sar][NMeV] / II: T[dV]P[Sar][NMeV]; ester I:1-I:C, II:1-II:C; linker I:N-II:N via Actinocin(9to1))', 'latently HIV-1 infected CA5 T cells', 'strong priming effect'),
  ('CC[C@@]1(O)C[C@H](O[C@H]2C[C@H](N(C)C)[C@H](O[C@H]3C[C@H](O)[C@H](O[C@H]4CCC(=O)[C@H](C)O4)[C@H](C)O3)[C@H](C)O2)c2c(cc3c(c2O)C(=O)c2c(O)cccc2C3=O)[C@H]1C(=O)OC', 'latently HIV-1 infected CA5 T cells', 'strong priming effect'),
  ('CO[C@H]1[C@H](O)[C@@H](O)[C@H](n2c3c(Cl)cccc3c3c4c(c5c6cccc(Cl)c6[nH]c5c32)C(=O)NC4=O)O[C@@H]1CO', 'latently HIV-1 infected CA5 T cells', 'not reproduced');

Sourced from patent US20130096054A1
